# Tested on: Escherichia coli TOP10;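 note: peptides expressed intracellularly from a pBAD plasmid library in pooled LB shake-flask culture, induced with 0.3% L-arabinose, DNA abundance read by NGS, three biological replicates, DESeq2 with apeglm shrinkage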
# experiment-notes: shrunken log2 fold change of peptide-encoding DNA abundance (4.5 h post-induction vs induction); higher = less antimicrobial activity (less host growth inhibition)
# assay-context: time post-induction: 4.5 h; library: site-saturation at positions 5, 18, 19, 20
If the reported shrunken log2 fold change equals or exceeds 0.1, assign Fulfilled. If not, assign Not fulfilled.

// known answers, use as guide
RRIRFRPPRLPRPRPRPTDCPRP = Not fulfilled
RRIRGRPPRLPRPRPRPVTNPRP = Fulfilled
RRIRCRPPRLPRPRPRPTLMPRP = Not fulfilled
RRIRERPPRLPRPRPRPEKTPRP = Not fulfilled
RRIRMRPPRLPRPRPRPCYSPRP = Not fulfilled
RRIRPRPPRLPRPRPRPDLDPRP = Fulfilled

// query Determine whether measured shrunken log2 fold change meets or exceeds 0.1 for "RRIRVRPPRLPRPRPRPGEAPRP"
// result Fulfilled

// query Determine whether measured shrunken log2 fold change meets or exceeds 0.1 for "RRIRFRPPRLPRPRPRPDCIPRP"
// result Not fulfilled

// query Determine whether measured shrunken log2 fold change meets or exceeds 0.1 for "RRIRLRPPRLPRPRPRPKCWPRP"
// result Fulfilled
